# System: NCI-H2085
# experimental-protocol: relative viability (nuclei count vs DMSO), 5 days (fraction); higher = more cells survive
# experimental-setup: first compound 0.01 µM
Please respond with met when measured relative viability is strictly beneath 0.5, and with not met in all other cases.

compound	tgt	class-label
Cc1cn(-c2cc(NC(=O)c3ccc(C)c(Nc4nccc(-c5cccnc5)n4)c3)cc(C(F)(F)F)c2)cn1 [Nilotinib] + CS(=O)(=O)N1CCN(Cc2cc3nc(-c4cccc5[nH]ncc45)nc(N4CCOCC4)c3s2)CC1 [Pictilisib] (partner 1 µM)	NCI-H2085	met
Cc1cn(-c2cc(NC(=O)c3ccc(C)c(Nc4nccc(-c5cccnc5)n4)c3)cc(C(F)(F)F)c2)cn1 [Nilotinib] + N=C(N)NC(=N)NCCc1ccccc1 [Phenformin] (partner 250 µM)	NCI-H2085	not met
Cc1cn(-c2cc(NC(=O)c3ccc(C)c(Nc4nccc(-c5cccnc5)n4)c3)cc(C(F)(F)F)c2)cn1 [Nilotinib] + CC(=O)Nc1cccc(-n2c(=O)n(C3CC3)c(=O)c3c(Nc4ccc(I)cc4F)n(C)c(=O)c(C)c32)c1 [Trametinib] (partner 0.02 µM)	NCI-H2085	met
Cc1cn(-c2cc(NC(=O)c3ccc(C)c(Nc4nccc(-c5cccnc5)n4)c3)cc(C(F)(F)F)c2)cn1 [Nilotinib] + NC(=O)Nc1cc(-c2cccc(F)c2)sc1C(=O)N[C@H]1CCCNC1 [AZD7762] (partner 0.2 µM)	NCI-H2085	not met
Cc1cn(-c2cc(NC(=O)c3ccc(C)c(Nc4nccc(-c5cccnc5)n4)c3)cc(C(F)(F)F)c2)cn1 [Nilotinib] + Cc1nc(Nc2ncc(C(=O)Nc3c(C)cccc3Cl)s2)cc(N2CCN(CCO)CC2)n1 [Dasatinib] (partner 0.075 µM)	NCI-H2085	met
Cc1cn(-c2cc(NC(=O)c3ccc(C)c(Nc4nccc(-c5cccnc5)n4)c3)cc(C(F)(F)F)c2)cn1 [Nilotinib] + CC(C)C[C@H](NC(=O)[C@H](Cc1ccccc1)NC(=O)c1cnccn1)B(O)O [Bortezomib] (partner 0.002 µM)	NCI-H2085	not met
Cc1cn(-c2cc(NC(=O)c3ccc(C)c(Nc4nccc(-c5cccnc5)n4)c3)cc(C(F)(F)F)c2)cn1 [Nilotinib] + COc1cccc2cc(-c3nc([C@H]4CC[C@H](C(=O)O)CC4)n4ncnc(N)c34)[nH]c12 [OSI-027] (partner 0.5 µM)	NCI-H2085	not met

* * *

# System: NCI-H2126
# experimental-protocol: relative viability (nuclei count vs DMSO), 5 days (fraction); higher = more cells survive
# experimental-setup: first compound 0.03162 µM

compound	tgt	relative viability
Cc1cn(-c2cc(NC(=O)c3ccc(C)c(Nc4nccc(-c5cccnc5)n4)c3)cc(C(F)(F)F)c2)cn1 [Nilotinib] + COc1cc2c(Oc3ccc(NC(=O)C4(C(=O)Nc5ccc(F)cc5)CC4)cc3F)ccnc2cc1OCCCN1CCOCC1 [Foretinib] (partner 0.25 µM)	NCI-H2126	1.2
Cc1cn(-c2cc(NC(=O)c3ccc(C)c(Nc4nccc(-c5cccnc5)n4)c3)cc(C(F)(F)F)c2)cn1 [Nilotinib] + CC(=O)c1c(C)c2cnc(Nc3ccc(N4CCNCC4)cn3)nc2n(C2CCCC2)c1=O [Palbociclib] (partner 0.5 µM)	NCI-H2126	0.321
Cc1cn(-c2cc(NC(=O)c3ccc(C)c(Nc4nccc(-c5cccnc5)n4)c3)cc(C(F)(F)F)c2)cn1 [Nilotinib] + CC1(C)CCC(c2ccc(Cl)cc2)=C(CN2CCN(c3ccc(C(=O)NS(=O)(=O)c4ccc(N[C@H](CCN5CCOCC5)CSc5ccccc5)c(S(=O)(=O)C(F)(F)F)c4)cc3)CC2)C1 [Navitoclax] (partner 0.5 µM)	NCI-H2126	0.846
Cc1cn(-c2cc(NC(=O)c3ccc(C)c(Nc4nccc(-c5cccnc5)n4)c3)cc(C(F)(F)F)c2)cn1 [Nilotinib] + CS(=O)(=O)N1CCN(Cc2cc3nc(-c4cccc5[nH]ncc45)nc(N4CCOCC4)c3s2)CC1 [Pictilisib] (partner 1 µM)	NCI-H2126	0.546
